- Target Under Test: CYP2B1 mRNA (CAR activation) (Rattus norvegicus)
- Sequence (Q9QUS1 whole entry): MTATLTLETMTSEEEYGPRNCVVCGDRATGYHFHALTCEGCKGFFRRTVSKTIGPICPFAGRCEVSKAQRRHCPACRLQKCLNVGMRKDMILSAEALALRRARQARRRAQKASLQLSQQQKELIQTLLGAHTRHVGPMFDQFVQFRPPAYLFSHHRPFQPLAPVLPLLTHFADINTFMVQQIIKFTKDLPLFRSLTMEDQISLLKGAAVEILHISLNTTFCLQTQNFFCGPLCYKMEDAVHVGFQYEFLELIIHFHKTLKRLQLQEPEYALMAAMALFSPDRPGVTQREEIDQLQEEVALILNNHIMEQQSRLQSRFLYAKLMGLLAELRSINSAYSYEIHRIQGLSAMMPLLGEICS
- Measurement Notes: Activation of CAR in rat hepatocytes assessed as upregulation of CYP2B1 mRNA expression at 100 uM after 24 hrs by RT-PCR analysis relative to control
- Type: ADME, cell-based, Hepatocyte
- Condition Parameters: read-out: FC
Reported Metric: fold induction at 24 h, 100 µM
Please give only the number in your answer, with no unit.

Challenge: What fold induction at 24 h, 100 µM value was documented for this compound, CCC1(c2ccccc2)C(=O)NC(=O)NC1=O [PHENOBARBITAL SODIUM] ?
Response given: 48

###

- Test system: CAR mRNA
- Measurement Notes: Effect on CAR mRNA expression in rat hepatocytes at 1 uM by RT-PCR analysis relative to control
- Assay type: ADME, cell-based, Hepatocyte
- Condition Parameters: read-out: FC
Reported Metric: fold induction at 1 µM
Please give the numeric answer without any surrounding text.

Challenge: What fold induction at 1 µM value was documented for this molecule, "CC(C)(C)[C@]1(O)C[C@@H]2OC(=O)C[C@@]23C(=O)O[C@@H]2OC(=O)[C@H](O)[C@]213" ?
Response given: 1.3

###

- System: PXR mRNA
- Measurement Notes: Effect on PXR mRNA expression in rat hepatocytes at 3 uM by RT-PCR analysis relative to control
- Type: ADME, cell-based, Hepatocyte
- Condition Parameters: read-out: FC
Reported Metric: fold induction at 3 µM
// print number alone

Challenge: Find the recorded fold induction at 3 µM belonging to "CC(C)(C)[C@]1(O)C[C@@H]2OC(=O)C[C@@]23C(=O)O[C@@H]2OC(=O)[C@H](O)[C@]213" and report it.
Response given: 1

###

- Test system: PXR mRNA
- Measurement Notes: Effect on PXR mRNA expression in rat hepatocytes at 10 uM by RT-PCR analysis relative to control
- Format: ADME, cell-based, Hepatocyte
- Condition Parameters: read-out: FC
Reported Metric: fold induction at 10 µM
Field format: numeric only.

Challenge: Suppose we examine the compound "CC(C)(C)[C@]1(O)C[C@@H]2OC(=O)C[C@@]23C(=O)O[C@@H]2OC(=O)[C@H](O)[C@]213" ; what fold induction at 10 µM value has been reported?
Response given: 1.4

###

- System: CAR mRNA
- Measurement Notes: Effect on CAR mRNA expression in rat hepatocytes at 10 uM by RT-PCR analysis relative to control
- Type: ADME, cell-based, Hepatocyte
- Condition Parameters: read-out: FC
Reported Metric: fold induction at 10 µM
Returns: the value as a bare number; no unit string appended.

Challenge: Returns the measured fold induction at 10 µM for the input compound. Input: "CC(C)(C)[C@]1(O)C[C@@H]2OC(=O)C[C@@]23C(=O)O[C@@H]2OC(=O)[C@H](O)[C@]213"
Response given: 1.1
